Values were extracted from ChEMBL document CHEMBL5584255.

Tested on: Aspergillus fumigatus
Assay info: Antifungal activity against Aspergillus fumigatus
Type: functional
Property: MIC

>  <Structure smiles>
C/C(Cn1cc(-c2csc(N)n2)c(=O)c2cc(F)c(Cl)cc21)=N\O

>  <Result>
699 µM

$$$$
>  <Structure smiles>
CC(=O)Cn1cc(-c2csc(C)n2)c(=O)c2cc(F)c(Cl)cc21

>  <Result>
731 µM

$$$$
>  <Structure smiles>
Nc1nc(-c2c[nH]c3cc(Cl)c(F)cc3c2=O)cs1

>  <Result>
217 µM

$$$$
>  <Structure smiles>
C/C(Cn1cc(-c2csc(C)n2)c(=O)c2cc(F)c(F)cc21)=N\NC(N)=S

>  <Result>
1260 µM

$$$$
>  <Structure smiles>
C/C(Cn1cc(-c2csc(N)n2)c(=O)c2cc(F)ccc21)=N\NC(N)=S

>  <Result>
656 µM

$$$$
